These entries and their values trace back to the supplement of paper PMC10567573.

The entries below come with measured protein stability index values attached.
B1: MMP1 (parent)
chain: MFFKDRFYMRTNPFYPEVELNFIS

- Variants of: B1
- PROTOCOL_DESCRIPTION: protein stability index of a GFP-peptide fusion (GPS, HEK-293T) (PSI 1-6); higher = more stable;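 further: lentivirally expressed fusions sorted by FACS into six bins by GFP to DsRed ratio, PSI derived from sequencing read proportions per bin multiplied by bin number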
- COND: c terminus: a fixed tail appended
Form: value (number only, do not type unit).

For orientation, consider the following solved cases.
{"columns": ["MUTATION_ID", "protein stability index"],
 "data": [
  ["F22R", 2.69],
  ["E17R", 2.57],
  ["N21G", 4.41],
  ["M9Q", 2.65],
  ["F14D", 3.86]
]}

Return reported protein stability index; argument: R10P
2.77

Return reported protein stability index; argument: I23F
2.41

Return reported protein stability index; argument: F7R
3.28

Return reported protein stability index; argument: T11M
3.47

Return reported protein stability index; argument: F3Q
3.42

Return reported protein stability index; argument: P16I
3.59
